Attribution: the supplement of paper PMC11451515

# cell viability per record follows
tested on: P12-Ichikawa; assay: cell viability relative to DMSO control; higher = less cytotoxic; conditions: RPMI 5 mM glucose + 10% FBS; 48 h; 0.569 µM
Experimental endpoint: cell viability (%)

>>> readout_value("COc1cc(NCc2ccc3nc(N)nc(N)c3c2C)cc(OC)c1OC")
96.1
>>> readout_value("c1cc(-c2cnn3cc(-c4ccc(OCCN5CCCCC5)cc4)cnc23)ccn1")
76
>>> readout_value("CNC(=O)c1ccc2c(c1)NC(=O)/C2=C(\\Nc1cccc(CN(C)C)c1)c1ccccc1")
103
>>> readout_value("C=CC(=O)Nc1cccc(Sc2nc(Nc3ccc(N4CCN(C)CC4)cc3)ncc2Cl)c1")
120
>>> readout_value("NC1=NC(=O)N2CC12 (stereo unspecified)")
104
>>> readout_value("CNc1nc(-c2ccc3c(N)n[nH]c3c2)cc(N2C[C@@H](C(=O)NC3CCCCC3)CC[C@H]2C)n1")
64
>>> readout_value("C/C1=C2/[N]3[Co+]456([OH])<-[N]7=C1[C@@H](CCC(N)=O)C(C)(C)/C7=C/C1=[N]->4C(=C(/C)C4=[N]->5[C@@](C)([C@H]3[C@H](CC(N)=O)[C@@]2(C)CCC(=O)NC[C@@H](C)OP(=O)([O-])O[C@H]2[C@@H](O)[C@@H](n3c[n]->6c5cc(C)c(C)cc53)O[C@@H]2CO)[C@@](C)(CC(N)=O)[C@@H]4CCC(N)=O)/[C@@](C)(CC(N)=O)[C@@H]1CCC(N)=O")
98.8
>>> readout_value("CN1C(=O)c2sccc2N(C)c2nc(Nc3ccc([S+](N)(=O)[O-])cc3)ncc21")
90
>>> readout_value("NCCCC(N)(C(=O)O)C(F)F (stereo unspecified)")
113
>>> readout_value("COc1ccccc1[C@H](c1cccc2ccccc12)[C@@](C)(C#N)C(=O)N1CCC(c2cccc(C(F)(F)F)c2)CC1")
107
>>> readout_value("CCNC(=O)Nc1ccc(Oc2ncnc(N)c2/C=N/OC)cc1Cl")
126
>>> readout_value("COC1=CC=C(C=C1)/C2=C(O)/C(=O)C3=C(O)C=C(O)C(=C3O2)CC=C(C)C")
114
>>> readout_value("C[C@H](NC(=O)Cc1cc(F)cc(F)c1)C(=O)N[C@H](C(=O)OC(C)(C)C)c1ccccc1")
89.1
>>> readout_value("CN(C)CCCC1(c2ccc(F)cc2)OCc2cc(C#N)ccc21 (stereo unspecified)")
87.1
>>> readout_value("Cc1ccc(C(=O)Nc2cccc(C(F)(F)F)c2)cc1Nc1nc(-c2cccnc2)nc2c1cnn2C")
87.5
>>> readout_value("Nc1ccc(C(=O)c2cc3c(ccc4ccccc43)[nH]2)cc1")
102
>>> readout_value("COc1c(Cl)cc2c([nH]c3cnccc32)c1NC(=O)c1cccnc1C")
96.1
>>> readout_value("Oc1cc(-c2nc(-c3ccccc3)[nH]c2-c2ccncc2)ccc1Cl")
111
>>> readout_value("COc1cc(C(=O)NC2CCN(C)CC2)ccc1Nc1ncc2c(n1)N(C1CCCC1)CCC(=O)N2C(C)C")
89.6
>>> readout_value("N[S+](=O)([O-])c1ccc(Nc2nc(OCC3CCCCC3)c3[nH]cnc3n2)cc1")
32.3
>>> readout_value("OC(=O)\\C1=C\\N(C2CC2)C3=CC(=C(F)C=C3C1=O)N4CCNCC4")
115
